System: Caco-2
EXPERIMENT NOTES: cell viability relative to DMSO; higher = less toxic
REPORTED CONDITIONS: 72 h; 100 nM

| COMPOUND | STUDY SYSTEM | cell viability / % |
| --- | --- | --- |
| CCCCS(=O)(=O)N[C@@H](Cc1ccc(OCCCCC2CCNCC2)cc1)C(=O)O | Caco-2 | 98.3 |
| Nc1ncn([C@@H]2O[C@H](CO)[C@@H](O)[C@H]2O)c(=O)n1 | Caco-2 | 96.1 |
| C=CCN1C[C@H](C(=O)N(CCCN(C)C)C(=O)NCC)C[C@@H]2c3cccc4[nH]cc(c34)C[C@H]21 | Caco-2 | 83 |
| N=C(N)Nc1ccc2[nH]c3c(c2c1)C[C@@]1(O)[C@H]2Cc4ccc(O)c5c4[C@@]1(CCN2CC1CC1)[C@H]3O5 | Caco-2 | 99.4 |
| CCCOc1ccc2[nH]c(NC(=O)OC)nc2c1 | Caco-2 | 107 |
| C=CCc1cccc(/C=N/NC(=O)CN2CCN(Cc3ccccc3)CC2)c1O | Caco-2 | 91.5 |
| Cc1ccc2c(c1)Cc1c(C(=O)NC3CCCCC3)nn(-c3ccc(Cl)cc3Cl)c1-2 | Caco-2 | 97.3 |
| COc1c2ccoc2cc2oc(=O)ccc12 | Caco-2 | 94.3 |
| CN(C)CCCSC(=N)N | Caco-2 | 93.9 |
| Cc1ccnc2c1CCCC2C(N)=S (stereo not given) [isotiquimide] | Caco-2 | 99.9 |
